- testedOn: T1, R753E (Drosophila melanogaster, UniProt Q9W1K4 512-819, R753E)
- T1 sequence: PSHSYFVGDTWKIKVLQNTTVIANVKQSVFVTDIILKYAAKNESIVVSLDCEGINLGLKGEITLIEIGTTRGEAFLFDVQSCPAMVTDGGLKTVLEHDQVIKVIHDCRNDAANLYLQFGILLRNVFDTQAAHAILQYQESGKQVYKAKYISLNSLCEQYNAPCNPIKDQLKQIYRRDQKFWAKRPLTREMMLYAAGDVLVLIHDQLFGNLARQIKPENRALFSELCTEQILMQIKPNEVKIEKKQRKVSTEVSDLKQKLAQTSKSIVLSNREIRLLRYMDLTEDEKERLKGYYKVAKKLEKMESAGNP
- assayText: fluorescence anisotropy; FA: 20 mM HEPES-NaOH pH 7.5, 100 mM NaCl, 10% glycerol, 20 C, 10 nM FAM-RNA; competition: 150 nM Egl512-819 + 10 nM FAM-K10 TLS, same buffer
- assayContext: protein: recombinant; tags: N-terminal GST; label: 5'-6-FAM; hairpin with two bulges

| binder | scaleUnit | Kd |
| --- | --- | --- |
| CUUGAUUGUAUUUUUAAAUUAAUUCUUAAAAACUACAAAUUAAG (structured_RNA) [K10 TLS (FAM)] | nM | 185 |
